- targetSystem: UniProt:P08164
- Sequence (P08164 2-272 limits assumed): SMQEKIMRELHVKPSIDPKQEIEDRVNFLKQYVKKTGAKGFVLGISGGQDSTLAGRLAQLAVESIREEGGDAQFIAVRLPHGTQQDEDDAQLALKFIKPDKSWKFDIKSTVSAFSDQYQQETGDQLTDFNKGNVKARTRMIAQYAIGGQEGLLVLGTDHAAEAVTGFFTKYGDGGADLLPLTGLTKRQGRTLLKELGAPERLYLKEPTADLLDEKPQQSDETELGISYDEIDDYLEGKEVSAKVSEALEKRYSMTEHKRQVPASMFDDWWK
- measurementNotes: biochemical
- Format: biochemical
Outcome: criterion met for inhibition at 100 µM of at least 90%; criterion not met for anything lower.

>>> discretelabel("CC(C)c1ccc2[nH]c(CCCCCCCCOC(=O)c3cccc([N+](C)(C)C)c3)cc2c1 [Compound 876]")
"criterion met"
>>> discretelabel("COC(=O)c1cc2ccccc2n1CCCCCCCCOC(=O)c1ccc[n+](C)c1 [Compound 973]")
"criterion met"

Proceed to the following item.
Ask: Dear colleague, could you confirm whether COC(=O)c1cc2cc(OCc3ccccc3)ccc2n1CCCCCCOC(=O)c1ccc[n+](C)c1 [Compound 975] has inhibition at 100 µM at or above 90%?
Reply: criterion not met
